Form field: IC50 (one value per entry).
# MEASURED_ON: PRMT5/MEP50 (Homo sapiens (Human))
# Sequence (O14744 other isoform, or with tags, fused parts or gaps): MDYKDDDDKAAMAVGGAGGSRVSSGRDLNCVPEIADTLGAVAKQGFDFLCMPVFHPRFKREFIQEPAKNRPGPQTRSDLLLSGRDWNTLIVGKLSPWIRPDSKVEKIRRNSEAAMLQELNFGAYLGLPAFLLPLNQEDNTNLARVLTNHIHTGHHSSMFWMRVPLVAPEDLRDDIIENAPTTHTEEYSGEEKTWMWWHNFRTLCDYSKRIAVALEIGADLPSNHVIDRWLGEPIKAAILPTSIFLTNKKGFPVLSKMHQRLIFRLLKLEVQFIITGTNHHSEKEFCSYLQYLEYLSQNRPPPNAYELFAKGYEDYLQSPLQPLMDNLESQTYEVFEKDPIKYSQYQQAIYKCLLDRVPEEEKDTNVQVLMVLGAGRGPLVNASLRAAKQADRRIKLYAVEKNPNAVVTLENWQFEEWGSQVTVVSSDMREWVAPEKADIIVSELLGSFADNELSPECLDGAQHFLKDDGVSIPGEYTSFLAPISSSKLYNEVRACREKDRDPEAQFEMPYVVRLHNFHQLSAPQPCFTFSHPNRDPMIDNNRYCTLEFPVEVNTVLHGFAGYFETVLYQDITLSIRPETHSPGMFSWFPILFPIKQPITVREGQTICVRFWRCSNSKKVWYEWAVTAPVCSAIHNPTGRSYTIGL
# Sequence (Q9BQA1 other isoform, or with tags, fused parts or gaps partner): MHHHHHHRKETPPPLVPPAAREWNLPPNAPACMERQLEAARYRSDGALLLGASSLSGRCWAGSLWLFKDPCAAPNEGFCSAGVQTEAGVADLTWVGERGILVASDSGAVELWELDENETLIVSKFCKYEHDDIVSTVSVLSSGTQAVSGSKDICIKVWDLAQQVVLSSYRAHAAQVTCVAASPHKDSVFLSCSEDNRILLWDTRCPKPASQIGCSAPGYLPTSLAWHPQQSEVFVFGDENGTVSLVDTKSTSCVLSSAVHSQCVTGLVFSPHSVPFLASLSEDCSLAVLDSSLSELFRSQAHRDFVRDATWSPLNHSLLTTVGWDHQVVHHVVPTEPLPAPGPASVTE
# TEST_PROTOCOL: PRMT5 Biochemical Assay (PRMT5/MEP50 enzyme assay on peptide substrate, 3H-SAM Flashplate)
# TEST_CONTEXT: PRMT5/MEP50 4 nM, 3H-SAM 75 nM, peptide 40 nM
# Excerpt: S-adenosylmethionine (SAM), S-adenosylhomocysteine (SAH), bicine, KCl, Tween20, dimethylsulfoxide (DMSO), bovine skin gelatin (BSG), and Tris(2-carboxyethyl)phosphine hydrochloride solution (TCEP) were purchased from Sigma-Aldrich at the highest level of purity possible. ^3H-SAM was purchase from American Radiolabeled Chemicals with a specific activity of 80 Ci/mmol. 384-well streptavidin Flashplates were purchased from PerkinElmer. […]

- COMPOUND: "CC(=O)N1CCC(Nc2cc(C(=O)NC[C@H](O)CN3CCCc4ccccc4C3)ncn2)CC1"
  IC50: "> 10 µM"
- COMPOUND: "CN(C)S(=O)(=O)c1ccccc1OCC(=O)NCC(O)CN1Cc2ccccc2C1 (stereo not shown)"
  IC50: "< 0.1 µM"
- COMPOUND: "CC(=O)N1CCC(Nc2cc(C(=O)NC[C@H](O)CN3CCc4ccccc43)ccn2)CC1"
  IC50: "> 10 µM"

Now for the compound whose IC50 we want.
Sure, the documented IC50 for OC(COc1cccc(CNC2CCCC2)c1)CN1Cc2ccccc2C1 (stereo not shown) is 1 to 10 µM

Entry source: patent US10118918B2
